assay_info: control 3'UTR Renilla luciferase suppression, dose response, counter-screen for Shn3 inhibitor project, cell-based, Clone20-Shn3RL, cherry-picked (AID 624133)
Assay type: functional
Active and inactive are the calls of the source.
Parameter AC50: see the listing below.
quantity_name: AC50

# compound, result
data = [
    ("O=C(c1cc(COc2c(F)cccc2F)on1)N1CCC(c2ccncc2)CC1", "2.31 µM (active)"),
    ("C=C[C@]1(C)C=C2C(=O)[C@@]3(O)OC(=O)[C@@]4(CCCC(C)(C)[C@H]34)[C@@]2(O)CC1", "4.85 µM (active)"),
    ("CN(C)S(=O)(=O)c1cccc(/N=c2\\scc(-c3ccc4c(c3)NC(=O)CO4)n2CC2CCCO2)c1 (centres undefined)", "22.5 µM (active)"),
    ("Cc1ccc2nc(-c3ccc(O)c(O)c3)cn2c1", "2.47 µM (active)"),
]

---

tested_target: 72 kDa type IV collagenase (Homo sapiens)
Sequence (P08253 whole entry): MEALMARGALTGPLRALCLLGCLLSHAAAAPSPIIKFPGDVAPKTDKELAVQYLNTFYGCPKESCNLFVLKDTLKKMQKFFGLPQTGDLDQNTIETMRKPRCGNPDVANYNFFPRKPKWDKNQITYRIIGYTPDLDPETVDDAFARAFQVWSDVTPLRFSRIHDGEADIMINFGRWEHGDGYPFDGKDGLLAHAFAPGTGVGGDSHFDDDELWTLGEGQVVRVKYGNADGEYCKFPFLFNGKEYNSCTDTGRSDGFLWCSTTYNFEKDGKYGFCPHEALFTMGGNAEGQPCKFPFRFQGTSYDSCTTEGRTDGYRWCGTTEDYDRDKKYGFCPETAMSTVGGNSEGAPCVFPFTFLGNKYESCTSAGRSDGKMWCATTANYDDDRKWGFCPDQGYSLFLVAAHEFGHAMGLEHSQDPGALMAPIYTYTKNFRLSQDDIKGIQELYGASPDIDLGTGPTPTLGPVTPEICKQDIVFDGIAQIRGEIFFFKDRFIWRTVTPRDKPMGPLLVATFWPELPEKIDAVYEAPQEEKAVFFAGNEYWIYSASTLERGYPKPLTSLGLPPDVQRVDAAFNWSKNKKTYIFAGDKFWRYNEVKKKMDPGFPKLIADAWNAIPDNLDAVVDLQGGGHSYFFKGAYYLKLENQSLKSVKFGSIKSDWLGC
assay_info: Dose Response validation of uHTS RPN11 inhibitor hits using a MMP-2 Fluorescence assay.
Assay type: functional
Activity calls are given as the source filed them.
Classes used: true for active, false for inactive

# molecule, tested_target, group
measured = [
    ("COc1cccc(NC2=Nc3cccc4cccc2c34)c1", "72 kDa type IV collagenase (Homo sapiens)", "false"),
    ("CCC(=O)NC(c1cccs1)c1cc([N+](=O)[O-])c2cccnc2c1O (stereo not given)", "72 kDa type IV collagenase (Homo sapiens)", "true"),
    ("CN1C=CC(=CC=C2C=CC(=O)C=C2)C=C1", "72 kDa type IV collagenase (Homo sapiens)", "false"),
    ("O=C1NC(=O)N(c2ccc(Cl)cc2)C(=O)/C1=C\\c1ccc(Sc2nc3ccccc3[nH]2)o1", "72 kDa type IV collagenase (Homo sapiens)", "false"),
    ("Cc1ccccc1NC(=NCCCN1CC1)Nc1ccccc1C", "72 kDa type IV collagenase (Homo sapiens)", "false"),
]

---

Read-out record for Glyceraldehyde-3-phosphate dehydrogenase (Homo sapiens, UniProt P04406): IC50
quantity_name: IC50

# smiles_structure, tested_target, result
rows = [
    ("Cc1ccc(S(=O)(=O)Nc2cnc3ccccc3c2)c(C)c1C", "Glyceraldehyde-3-phosphate dehydrogenase (Homo sapiens, UniProt P04406)", "> 100 µM (not active)"),
    ("O=S(=O)(Nc1cnc2ccccc2c1)c1cc(Cl)ccc1F", "Glyceraldehyde-3-phosphate dehydrogenase (Homo sapiens, UniProt P04406)", "> 100 µM (not active)"),
    ("O=C(O)c1cc(-c2ccccc2O)n[nH]1", "Glyceraldehyde-3-phosphate dehydrogenase (Homo sapiens, UniProt P04406)", "> 100 µM (not active)"),
    ("C[C@@H]1CN(C2=C(Cl)C(=O)N(c3ccc(Cl)nc3)C2=O)CCN1", "Glyceraldehyde-3-phosphate dehydrogenase (Homo sapiens, UniProt P04406)", "> 50 µM (inconclusive)"),
    ("O=C1C(Cl)=C(N2CCOCC2)C(=O)N1c1cccc(Cl)c1Cl", "Glyceraldehyde-3-phosphate dehydrogenase (Homo sapiens, UniProt P04406)", "> 10 µM (inconclusive)"),
]

---

tested_target: Genome polyprotein (dengue virus type 2, UniProt P29990)
assay_info: Dengue-2 NS5 methyltransferase inhibitors, primary screen, biochemical, confirmation dose response (AID 588689)
Assay type: functional
Calls of active or inactive are those of the source.
quantity_name: IC50

# compound, result
records = [
    ("COC(=O)CCC(=O)OC1(C)C(=O)C2=CN(c3ccccc3)C(c3ccc(OC)cc3)=CC2=C(Br)C1=O (configuration not stated)", "> 100 µM (active)"),
    ("CC(=O)c1cc(O)c2ccccc2c1O", "29.7 µM (active)"),
    ("CCc1nnc(NC(=O)c2nc(S(=O)(=O)Cc3ccccc3)ncc2Cl)s1", "> 100 µM (active)"),
    ("COc1cccc(/C=C/c2nc(O)nc(O)c2[N+](=O)[O-])c1O", "72.5 µM (active)"),
    ("COC(=O)CCC(=O)OC1(C)C(=O)C2=CN(C3CC3)C(c3ccc(OC)cc3)=CC2=C(Br)C1=O (configuration not stated)", "> 100 µM (active)"),
    ("Cc1ccc2c(c1)C(=O)C(=O)N2CCCOc1ccccc1C", "> 100 µM (active)"),
    ("O=C(O)CN1C(=O)/C(=C\\c2ccccc2OCc2ccc(F)cc2)SC1=S", "43.2 µM (active)"),
    ("CC(=O)N(C(C)=O)N1C(=O)C2C3c4ccccc4C(c4ccccc43)C2C1=O (configuration not stated)", "53.8 µM (active)"),
    ("O=C1Nn2c(nc3c(c2=O)CCCC3)/C1=N/Nc1cccc(Cl)c1", "62.4 µM (active)"),
    ("O=c1ccc2c(-c3ccccc3S(=O)(=O)O)c3ccc(O)c(O)c3oc-2c1O [PYROGALLOL RED]", "4.06 µM (active)"),
    ("Nc1c(Br)cc(Br)c2c1C(=O)c1c(cccc1S(=O)(=O)O)C2=O", "96.1 µM (active)"),
    ("N#Cc1c([N+](=O)[O-])cc([N+](=O)[O-])cc1S(=O)(=O)Cc1ccccc1", "> 100 µM (active)"),
]
